Assign IC50 to each entry below.
- Tested on: HCT-116
- Experiment Description: Cytotoxicity against human HCT116 cells by sulforhodamine B assay
- Assay type: functional, cell-based

INPUT: I'd like to know its IC50. The compound in question is C/C(=C/C=C/CCO)C[C@H]1[C@H](O)[C@@](C)(O)[C@H]2[C@H](O)[C@@H](Cl)CCN12
OUTPUT: > 40 µM

INPUT: Record request: IC50 value, item C/C(=C\C=C\CCO)C[C@H]1[C@H](O)[C@@](C)(O)[C@H]2[C@H](O)[C@@H](Cl)CCN12
OUTPUT: > 40 µM

INPUT: Which IC50 is reported for this compound? CC(/C=C/C1CC1)=C\[C@H]1[C@H](O)[C@@](C)(O)c2c(O)ccc[n+]21
OUTPUT: > 40 µM

INPUT: What value of measured IC50 is listed for CC(/C=C/C1CC1)=C\[C@H]1[C@H](O)[C@@](C)(O)[C@H]2[C@H](O)[C@@H](O)CCN12 ?
OUTPUT: 8.3 µM

INPUT: For CC(/C=C/C1CC1)=C\[C@H]1[C@H](O)[C@@](C)(O)c2cccc[n+]21 , what is its reported IC50?
OUTPUT: > 40 µM

INPUT: Entry under review: CC(/C=C/C1CC1)=C\[C@H]1[C@H](O)[C@@](C)(O)[C@H]2CCCCN12 . Reported IC50?
OUTPUT: > 40 µM

INPUT: # query: IC50 of entry CC(/C=C/C1CC1)=C\[C@H]1[C@H](O)[C@@](C)(O)[C@H]2[C@@H]3O[C@@H]3CCN12
OUTPUT: 28 µM

INPUT: Fill in: IC50 of CC(/C=C/C1CC1)=C\[C@H]1[C@H](O)[C@@](C)(O)[C@H]2[C@H](O)[C@@H](Cl)CCN12 is ___
OUTPUT: 40 µM

INPUT: IC50 lookup needed for C/C(=C\C=C\CCO)C[C@H]1[C@H](O)[C@@](C)(O)[C@H]2CCCCN12 , thanks.
OUTPUT: > 40 µM

====

Assignment: determine reported pIC50 for the given molecules.
Please keep in mind that pIC50 is minus log10 of the molar concentration; only the number is needed.

INPUT: GET /values?readout=pIC50&system=Rho-associated protein kinase 2 (Homo sapiens, UniProt O75116)&item= CC(/C=C/C1CC1)=C\[C@H]1[C@H](O)[C@@](C)(O)[C@H]2[C@H](O)[C@@H](O)CCN12
OUTPUT: 5.15

INPUT: pIC50 of CC(/C=C/C1CC1)=C\[C@H]1[C@H](O)[C@@](C)(O)c2c(O)ccc[n+]21 on Rho-associated protein kinase 2 (Homo sapiens, UniProt O75116)?
OUTPUT: 4.57

INPUT: Please tell me: pIC50 of C/C(=C\C=C\CCO)C[C@H]1[C@H](O)[C@@](C)(O)[C@H]2[C@H](O)[C@@H](Cl)CCN12 , system Rho-associated protein kinase 2 (Homo sapiens, UniProt O75116)?
OUTPUT: 4.38

Value source: ChEMBL document CHEMBL4138283
